- condition set: human gut metagenome, 24 h, 2 µM; note: call rule not given here
readout kind: Bacterial Biotransformation

[[record]]
compound = "CC(=O)OCC(CCn1cnc2cnc(N)nc21)COC(C)=O [FAMCICLOVIR]"
result = "Compound metabolized"

[[record]]
compound = "C#C[C@]1(OC(C)=O)CC[C@H]2[C@@H]3CCC4=C/C(=N/O)CC[C@@H]4[C@H]3CC[C@@]21CC [NORGESTIMATE]"
result = "Compound metabolized"

[[record]]
compound = "CN(C)C(=O)Oc1cccc([N+](C)(C)C)c1.[Br-] [NEOSTIGMINE BROMIDE]"
result = "Compound NOT metabolized"

[[record]]
compound = "CC1Cc2ccccc2N1NC(=O)c1ccc(Cl)c(S(N)(=O)=O)c1 (stereo not drawn) [INDAPAMIDE]"
result = "Compound NOT metabolized"

[[record]]
compound = "CC[C@@]1(O)C(=O)OCc2c1cc1n(c2=O)Cc2cc3c(CN(C)C)c(O)ccc3nc2-1 [TOPOTECAN]"
result = "Compound NOT metabolized"

[[record]]
compound = "Nc1nc(N)nc(-c2cc(Cl)ccc2Cl)n1.O=C(O)/C=C\\C(=O)O [IRSOGLADINE MALEATE]"
result = "Compound NOT metabolized"

[[record]]
compound = "O=C1C(CC[S+]([O-])c2ccccc2)C(=O)N(c2ccccc2)N1c1ccccc1 (stereo not drawn) [SULFINPYRAZONE]"
result = "Compound metabolized"

[[record]]
compound = "COC1=C(OC)C(=O)C(CCCCCCCCCCO)=C(C)C1=O [IDEBENONE]"
result = "Compound NOT metabolized"

[[record]]
compound = "CC(N)C12CC3CC(CC(C3)C1)C2 (stereo not drawn) [RIMANTADINE]"
result = "Compound NOT metabolized"

[[record]]
compound = "CCN(CC)CCNC(=O)c1cc(S(C)(=O)=O)ccc1OC [TIAPRIDE]"
result = "Compound metabolized"

[[record]]
compound = "COc1ccc2c(c1)c(CC(=O)O)c(C)n2C(=O)c1ccc(Cl)cc1 [INDOMETHACIN]"
result = "Compound metabolized"

[[record]]
compound = "CN1[C@@H]2CC[C@H]1C[C@@H](OC(=O)c1c[nH]c3ccccc13)C2 [TROPISETRON]"
result = "Compound NOT metabolized"

[[record]]
compound = "CNNCc1ccc(C(=O)NC(C)C)cc1 [PROCARBAZINE]"
result = "Compound NOT metabolized"

[[record]]
compound = "CC(C)(C)NCC(O)COc1cccc2c1CC(O)C(O)C2 (stereo not drawn) [NADOLOL]"
result = "Compound NOT metabolized"

[[record]]
compound = "CC(C)(C)NC[C@H](O)COc1nsnc1N1CCOCC1.O=C(O)/C=C\\C(=O)O [TIMOLOL MALEATE]"
result = "Compound NOT metabolized"

[[record]]
compound = "O=C1CN2Cc3c(ccc(Cl)c3Cl)N=C2N1 [ANAGRELIDE]"
result = "Compound NOT metabolized"

[[record]]
compound = "C=CC[C@@H]1/C=C(\\C)C[C@H](C)C[C@H](OC)[C@H]2O[C@@](O)(C(=O)C(=O)N3CCCC[C@H]3C(=O)O[C@H](/C(C)=C/[C@@H]3CC[C@@H](O)[C@H](OC)C3)[C@H](C)[C@@H](O)CC1=O)[C@H](C)C[C@@H]2OC.O [TACROLIMUS]"
result = "Compound metabolized"

[[record]]
compound = "COc1cc(NC(C)CCCN)c2ncccc2c1.O=P(O)(O)O.O=P(O)(O)O (stereo not drawn) [PRIMAQUINE PHOSPHATE]"
result = "Compound NOT metabolized"

[[record]]
compound = "C#C[C@]1(OC(C)=O)CC[C@H]2[C@@H]3CCC4=C[C@@H](OC(C)=O)CC[C@@H]4[C@H]3CC[C@@]21C [ETHYNODIOL DIACETATE]"
result = "Compound metabolized"

[[record]]
compound = "C=C[C@H]1CN2CC[C@H]1C[C@H]2[C@H](O)c1ccnc2ccc(OC)cc12.C=C[C@H]1CN2CC[C@H]1C[C@H]2[C@H](O)c1ccnc2ccc(OC)cc12.O.O.O=S(=O)(O)O [QUININE SULFATE]"
result = "Compound metabolized"

[[record]]
compound = "CNCC[C@H](Oc1cccc2ccccc12)c1cccs1 [DULOXETINE]"
result = "Compound metabolized"

[[record]]
compound = "c1ccc2[nH]c(-c3cscn3)nc2c1 [THIABENDAZOLE]"
result = "Compound NOT metabolized"

[[record]]
compound = "O=C(CCCN1CCC2(CC1)C(=O)NCN2c1ccccc1)c1ccc(F)cc1 [SPIPERONE]"
result = "Compound metabolized"

[[record]]
compound = "N#Cc1ccc2c(c1)N(CCCN1CCC(O)CC1)c1ccccc1S2 [PERICIAZINE]"
result = "Compound NOT metabolized"

[[record]]
compound = "CC(=O)Nc1ccc(OC(C)=O)cc1 [DIACETAMATE]"
result = "Compound metabolized"

[[record]]
compound = "CC(C)C[C@H]1C(=O)N2CCC[C@H]2[C@]2(O)O[C@](NC(=O)[C@@H]3C=C4c5cccc6[nH]c(Br)c(c56)C[C@H]4N(C)C3)(C(C)C)C(=O)N12.CS(=O)(=O)O [BROMOCRIPTINE MESYLATE]"
result = "Compound metabolized"

[[record]]
compound = "Clc1cccc(Cl)c1N=C1NCCN1 [CLONIDINE]"
result = "Compound metabolized"

[[record]]
compound = "Nc1nnc(-c2cccc(Cl)c2Cl)c(N)n1 [LAMOTRIGINE]"
result = "Compound NOT metabolized"

[[record]]
compound = "C[C@]12CCC(=O)C=C1[C@@H]1C[C@@H]1[C@H]1[C@@H]3[C@@H]4C[C@@H]4[C@@]4(CCC(=O)O4)[C@@]3(C)CC[C@@H]12 [DROSPIRENONE]"
result = "Compound metabolized"

[[record]]
compound = "COc1ccc(Cc2nccc3cc(OC)c(OC)cc23)cc1OC [PAPAVERINE]"
result = "Compound metabolized"

[[record]]
compound = "CN(C)CCC=C1c2ccccc2COc2ccccc21 [DOXEPIN]"
result = "Compound NOT metabolized"

[[record]]
compound = "CCN(CC)C(=O)C1(c2ccccc2)CC1CN (stereo not drawn)"
result = "Compound NOT metabolized"

[[record]]
compound = "Cc1cc(C)cc(OCC2CNC(=O)O2)c1 (stereo not drawn) [METAXALONE]"
result = "Compound metabolized"


###

- assay protocol: The drug is tested on Z-001 corresponding to mouse gut metagenome with ENA study accession number: PRJEB37062 and ENA sample accession number: ERS12561801 for biotransformation under anaerobic condition. The drug concentrations were measured over 9 timepoints collected between 0 and 24 hours of incubation by liquid-chromatography-coupled mass spectrometry (LC–MS)
- condition set: 2 µM
readout kind: Bacterial Biotransformation

[[record]]
compound = "CCN(C(C)=O)c1cccc(-c2ccnc3c(C#N)cnn23)c1"
readout_kind = "Bacterial Biotransformation"
result = "Compound NOT metabolized"

[[record]]
compound = "C#C[C@]1(OC(C)=O)CC[C@H]2[C@@H]3CCC4=C/C(=N/O)CC[C@@H]4[C@H]3CC[C@@]21CC [NORGESTIMATE]"
readout_kind = "Bacterial Biotransformation"
result = "Compound NOT metabolized"

[[record]]
compound = "COc1ccc([C@@H]2Sc3ccccc3N(CCN(C)C)C(=O)[C@@H]2OC(C)=O)cc1"
readout_kind = "Bacterial Biotransformation"
result = "Compound metabolized"

[[record]]
compound = "COc1cc2nc(N3CCN(C(=O)C4CCCO4)CC3)nc(N)c2cc1OC (stereo not drawn)"
readout_kind = "Bacterial Biotransformation"
result = "Compound NOT metabolized"

[[record]]
compound = "COC1=C(OC)C(=O)C(CCCCCCCCCCO)=C(C)C1=O"
readout_kind = "Bacterial Biotransformation"
result = "Compound NOT metabolized"

[[record]]
compound = "CNNCc1ccc(C(=O)NC(C)C)cc1"
readout_kind = "Bacterial Biotransformation"
result = "Compound NOT metabolized"

[[record]]
compound = "O=C(O)CCC(=O)O.O=C(O[C@H]1CN2CCC1CC2)N1CCc2ccccc2[C@@H]1c1ccccc1 [SOLIFENACIN SUCCINATE]"
readout_kind = "Bacterial Biotransformation"
result = "Compound NOT metabolized"

[[record]]
compound = "Cc1ccccc1C(OCCN(C)C)c1ccccc1.O=C(O)CC(O)(CC(=O)O)C(=O)O (stereo not drawn) [ORPHENADRINE CITRATE]"
readout_kind = "Bacterial Biotransformation"
result = "Compound metabolized"


###

- condition set: human gut metagenome, 24 h, 2 µM
readout kind: Bacterial Biotransformation

[[record]]
molecule = "COc1ccnc(C[S+]([O-])c2nc3ccc(OC(F)F)cc3[nH]2)c1OC (centres undefined)"
result = "Compound metabolized"

[[record]]
molecule = "CC(C)NCC(O)COc1ccc(CC(N)=O)cc1 (centres undefined)"
result = "Compound metabolized"

[[record]]
molecule = "O=C1C(CC[S+]([O-])c2ccccc2)C(=O)N(c2ccccc2)N1c1ccccc1 (centres undefined)"
result = "Compound metabolized"

[[record]]
molecule = "CCCC(C)(COC(N)=O)COC(=O)NC(C)C (centres undefined)"
result = "Compound NOT metabolized"

[[record]]
molecule = "O=C(O)CCC(=O)O.O=C(O[C@H]1CN2CCC1CC2)N1CCc2ccccc2[C@@H]1c1ccccc1 [SOLIFENACIN SUCCINATE]"
result = "Compound metabolized"

[[record]]
molecule = "CCOc1ccc2nc(S(N)(=O)=O)sc2c1 [ETHOXZOLAMIDE]"
result = "Compound NOT metabolized"

[[record]]
molecule = "CN1CCC(=C2c3ccccc3CC(=O)c3sccc32)CC1.O=C(O)/C=C/C(=O)O [KETOTIFEN FUMARATE]"
result = "Compound metabolized"

[[record]]
molecule = "COC(=O)C(c1ccccc1)C1CCCCN1 (centres undefined) [METHYLPHENIDATE]"
result = "Compound metabolized"

[[record]]
molecule = "OCCN(CCO)c1nc(N2CCCCC2)c2nc(N(CCO)CCO)nc(N3CCCCC3)c2n1"
result = "Compound metabolized"

